tested on: Streptococcus pyogenes SSI-9; assay: Antibacterial activity assay of bead-derived peptides (three concentrations); format: cell-based; design: key: +++: inhibition by the 640-fold diluted peptide solution; ++: inhibition by the 160-fold diluted solution; +: inhibition by the 40-fold diluted solution; -: no inhibition; details: S. pyogenes, bead-derived peptide solution, three concentrations
Where a SMILES comes first, the peptide text is derived from it. [ ]: non-standard residue; d: D form. The star is where a group is joined. NHCH2CH2OH = OCCN*; For = O=C*

{"columns": ["compound", "antibacterial activity"],
 "data": [
  ["CNC(=O)C[C@@H](NC(=O)[C@H](Cc1c[nH]c2ccccc12)NC(=O)[C@@H](CC(C)C)NC(=O)[C@H](Cc1c[nH]c2ccccc12)NC(=O)[C@H](NC(=O)[C@H](Cc1c[nH]c2ccccc12)NC(=O)[C@@H](CC(C)C)NC(=O)[C@@H](NC(=O)[C@@H](CC(C)C)NC(=O)[C@H](C)NC(=O)[C@@H](CC(C)C)NC(=O)[C@H](C)NC(=O)CNC(=O)[C@@H](NC=O)C(C)C)C(C)C)[C@H](C)O)C(=O)N[C@@H](Cc1c[nH]c2ccccc12)C(=O)NCCO [compound 13033] (For-VGA[dL]A[dL]V[dL]W[dT]W[dL]W[dD](NHMe)W-NHCH2CH2OH)", "-"]
]}

###

tested on: Streptococcus pyogenes SSI-9; assay: Antibacterial activity assay of bead-derived peptides (three concentrations); format: cell-based; set-up: key: +++: inhibition by the 640-fold diluted peptide solution; ++: inhibition by the 160-fold diluted solution; +: inhibition by the 40-fold diluted solution; -: no inhibition; details: S. pyogenes, bead-derived peptide solution, three concentrations
Where a SMILES comes first, the peptide text is derived from it. [ ]: non-standard residue; d: D form. The star is where a group is joined. NHCH2CH2OH = OCCN*; For = O=C*

{"columns": ["compound", "antibacterial activity"],
 "data": [
  ["CC(C)C[C@@H](NC(=O)[C@H](C)NC(=O)CNC(=O)[C@@H](NC=O)C(C)C)C(=O)N[C@@H](C)C(=O)N[C@H](CC(C)C)C(=O)N[C@H](C(=O)N[C@@H](C(=O)N[C@@H](Cc1c[nH]c2ccccc12)C(=O)N[C@@H](C(=O)N[C@@H](Cc1c[nH]c2ccccc12)C(=O)N[C@H](CC(C)C)C(=O)N[C@@H](Cc1c[nH]c2ccccc12)C(=O)N[C@@H](C(=O)N[C@@H](Cc1c[nH]c2ccccc12)C(=O)NCCO)C(C)C)C(C)C)[C@H](C)O)C(C)C [compound 8043] (For-VGA[dL]A[dL]V[dT]W[dV]W[dL]W[dV]W-NHCH2CH2OH)", "-"],
  ["CC(C)C[C@@H](NC(=O)[C@H](C)NC(=O)CNC(=O)[C@@H](NC=O)C(C)C)C(=O)N[C@@H](C)C(=O)N[C@H](CC(C)C)C(=O)N[C@H](C(=O)N[C@H](CC(C)C)C(=O)N[C@@H](Cc1c[nH]c2ccccc12)C(=O)N[C@@H](C(=O)N[C@@H](Cc1c[nH]c2ccccc12)C(=O)N[C@H](CC(C)C)C(=O)N[C@@H](Cc1c[nH]c2ccccc12)C(=O)N[C@@H](C(=O)N[C@@H](Cc1c[nH]c2ccccc12)C(=O)NCCO)C(C)C)C(C)C)C(C)C [compound 1751] (For-VGA[dL]A[dL]V[dL]W[dV]W[dL]W[dV]W-NHCH2CH2OH)", "-"]
]}
